Values were extracted from paper PMC6882135.

- tested_target: UniProt:Q96DB2
- Sequence (Q96DB2 1-347): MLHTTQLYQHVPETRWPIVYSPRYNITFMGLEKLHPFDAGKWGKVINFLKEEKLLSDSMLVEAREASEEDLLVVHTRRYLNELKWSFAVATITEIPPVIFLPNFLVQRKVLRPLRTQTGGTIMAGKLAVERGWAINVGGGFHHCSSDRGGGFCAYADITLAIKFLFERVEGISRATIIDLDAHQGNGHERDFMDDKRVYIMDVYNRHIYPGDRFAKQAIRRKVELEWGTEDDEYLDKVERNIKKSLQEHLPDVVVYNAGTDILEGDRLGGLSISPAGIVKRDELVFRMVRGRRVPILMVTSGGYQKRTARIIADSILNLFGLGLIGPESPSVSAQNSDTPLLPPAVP
- assay_explanation: Continuous fluorescence HDAC11 activity assay with peptidic substrate 1
- Assay type: biochemical
Exercise: state measured IC50 for each of the molecules provided.

Would you kindly share the measured IC50 for CCCC(CCC)C(=O)O [valproate] ? > 40 µM

I would be grateful if you could share the reported IC50 for Nc1ccccc1NC(=O)c1ccc(CNc2nccc(-c3cccnc3)n2)cc1 . > 40 µM
